Target: T1, soluble HLA-A2 (…) tetramer (human)
T1 construct: Bought tetramer reagent; also called MAGE-A4/HLA tetramer reagent; HLA-A02:01 MAGE-A4 tetramer
Test: flow cytometry, HLA-A2 (…) tetramer staining of CHO cells transfected with the TCR
Would you mind telling me the reported % in Ag+ gate >250 MFI, >1% of each entry?
Numbers only, in %.

The examples below pair each entry with its known result.
The binder listed as PN41839 (TCR, V domains shown, stained with anti-mouse TCR constant region H57-597; full-length chains on transfected CHO cells; also called TCR No. 34) V domain 1: DAKTTQPPSMDCAEGRAANLPCNHSTISGNEYVYWYRQIHSQGPQYIIHGLKNNETNEMASLIITEDRKSSTLILPHATLRDTAVYYCIVYGGSQGNLIFGKGTKLSVKP V domain 2: DAGVTQSPTHLIKTRGQQVTLRCSPKSGHDTVSWYQQALGQGPQFIFQYYEEEERQRGNFPDRFSGHQFPNYSSELNVNALLLGDSALYLCASSFSRVQPQHFGDGTRLSIL shows % in Ag+ gate >250 MFI, >1% equal to 85.4

The binder listed as PN41573 (TCR, V domains shown, stained with anti-mouse TCR constant region H57-597; full-length chains on transfected CHO cells; also called TCR No. 15) V domain 1: AQTVTQSQPEMSVQEAETVTLSCTYDTSESDYYLFWYKQPPSRQMILVIRQEAYKQQNATENRFSVNFQKAAKSFSLKISDSQLGDAAMYFCAYRSATGNQFYFGTGTSLTVIP V domain 2: DVKVTQSSRYLVKRTGEKVFLECVQDMDHENMFWYRQDPGLGLRLIYFSYDVKMKEKGDIPEGYSVSREKKERFSLILESASTNQTSMYLCASSLWGTNEKLFFGSGTQLSVL shows % in Ag+ gate >250 MFI, >1% equal to 85.7

Now look at this entry.
The binder listed as PN41690 (TCR, V domains shown, stained with anti-mouse TCR constant region H57-597; full-length chains on transfected CHO cells; also called TCR No. 24) V domain 1: AQTVTQSQPEMSVQEAETVTLSCTYDTSESDYYLFWYKQPPSRQMILVIRQEAYKQQNATENRFSVNFQKAAKSFSLKISDSQLGDAAMYFCAYRSAIGNQFYFGTGTSLTVIP V domain 2: DVKVTQSSRYLVKRTGEKVFLECVQDMDHENMFWYRQDPGLGLRLIYFSYDVKMKEKGDIPEGYSVSREKKERFSLILESASTNQTSMYLCASSLWGVNTEAFFGQGTRLTVV shows % in Ag+ gate >250 MFI, >1% equal to 75.3

Entry source: patent US20220324939A1
